- assay_target: B-Raf kinase (SEQ. ID NO: 2) (Homo sapiens (Human), UniProt P15056)
- Sequence (P15056 416-766): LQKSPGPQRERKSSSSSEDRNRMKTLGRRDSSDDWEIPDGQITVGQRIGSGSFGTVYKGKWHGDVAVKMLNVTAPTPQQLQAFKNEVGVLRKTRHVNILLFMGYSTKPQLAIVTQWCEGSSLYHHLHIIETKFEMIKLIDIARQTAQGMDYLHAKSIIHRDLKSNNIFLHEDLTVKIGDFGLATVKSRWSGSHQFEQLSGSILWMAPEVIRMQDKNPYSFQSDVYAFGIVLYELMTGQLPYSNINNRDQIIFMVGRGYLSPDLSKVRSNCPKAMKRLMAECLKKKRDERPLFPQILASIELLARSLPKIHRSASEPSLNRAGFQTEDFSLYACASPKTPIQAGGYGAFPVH
- test_protocol: Biochemical Assay for B-Raf (1)
- condition: Table J, assay version (1); read-out: BRAF (1) IC50
pIC50: −log10 of the molar value.
measured_endpoint: pIC50

Here's what some known entries look like.
[[record]]
smiles_structure = "CC(=O)Nc1cc(-c2cc(-c3cc(NC(=O)c4ccnc(C(F)(F)F)c4)cnc3C)ccn2)ccn1"
result = "≥ 7.00"

[[record]]
smiles_structure = "COCC(=O)Nc1cc(-c2nccc(-c3cc(NC(=O)c4ccnc(C(C)(C)C#N)c4)ccc3C)n2)ccn1"
result = "≥ 7.00"

[[record]]
smiles_structure = "Cc1ccc(NC(=O)c2ccnc(C(C)(C)C#N)c2)cc1-c1cccc(-c2ccnc(NC(=O)C3CC3)c2)c1"
result = "≥ 7.00"

[[record]]
smiles_structure = "Cc1ccc(NC(=O)c2ccnc(C(C)(C)C#N)c2)cc1-c1ccnc(-c2ccnc3c2CC(=O)N3)n1"
result = "≥ 7.00"

[[record]]
smiles_structure = "CNC(=O)c1cc(-c2cc(-c3cc(NC(=O)c4cccc(C(C)(C)C#N)c4)ccc3C)cc(OCCO)n2)ccn1"
result = "≥ 7.00"

[[record]]
smiles_structure = "COCCNC(=O)c1cc(-c2cnnc(-c3cc(NC(=O)c4cccc(C5CC5)c4)ccc3C)c2)ccn1"
result = "6.30 to 7.00"

[[record]]
smiles_structure = "Cc1ncc(NC(=O)c2ccnc(C3CC3)c2)cc1-c1ccnc(-c2ccnc(NC(=O)C3CC3)c2)n1"
result = "≥ 7.00"

[[record]]
smiles_structure = "CNC(=O)c1cc(-c2cc(-c3cc(NC(=O)c4ccnc(C(F)(F)F)c4)ccc3F)cc(C)n2)ccn1"
result = "5.00 to 6.00"


Which measured pIC50 value corresponds to "Cc1cc(C(=O)Nc2cnc(C)c(-c3ccnc(-c4ccnc(NC(=O)C5CC5)c4)n3)c2)ccn1" ?
6.30 to 7.00

Name the recorded pIC50 for "CC(=O)Nc1cc(-c2cc(-c3cc(NC(=O)c4ccnc(C(F)(F)F)c4)c(F)cc3C)cc(C)n2)ccn1" .
≥ 7.00

Which pIC50 is listed for "Cc1ncc(NC(=O)c2ccnc(C(C)(C)C#N)c2)cc1-c1cccc(-c2ncnc3c2CC(=O)N3)c1" ?
6.30 to 7.00
